Experiment: Oral absorption in Sprague-Dawley rat at 3 mg/kg by LC-MS/MS analysis
Format: ADME, organism-based
Conditions: in vivo
# maps each entry to its Fa
readout_name: Fa (%)

compound_structure	bound_sign	measurement
O=C1NCCc2c1cnn2-c1ccnc(Cc2cc(F)cc(C(F)(F)F)c2)c1	=	52
O=C1NCCc2c1cnn2-c1cc(Cc2cccc(C(F)(F)F)c2)ccn1	>	100

---

Test: Clearance in CD-1 mouse plasma at 1 mg/kg,iv by LC-MS/MS analysis
Type: ADME, organism-based

compound_structure	clearance, mL/min/kg
O=C1NCCc2c1cnn2-c1ccnc(Cc2cc(F)cc(C(F)(F)F)c2)c1	6
